- Tested on: hTERT-HMEC;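 further: secreted proteins added to cultured cells, EdU pulse at the end, nuclei found by Hoechst imaging, EdU status from nuclear versus surrounding ring intensity ratio, PBS as neutral control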
- test_description: percentage of EdU-negative (G0-arrested) nuclei per well, 72 h; higher = more G0 arrest
- settings: protein concentration 0.3125 µM; reference: sequence is the full UniProt precursor, the tested protein was the secreted form or ectodomain
experimental_endpoint: percentage of EdU-negative

- MKFTIVFAGLLGVFLAPALANYNINVNDDNNNAGSGQQSVSVNNEHNVANVDNNNGWDSWNSIWDYGNGFAATRLFQKKTCIVHKMNKEVMPSIQSLDALVKEKKLQGKGPGGPPPKGLMYSVNPNKVDDLSKFGKNIANMCRGIPTYMAEEMQEASLFFYSGTCYTTSVLWIVDISFCGDTVEN [Q9NS71]: 5.56%
- MGPLSAPPCTQHITWKGLLLTASLLNFWNLPITAQVTIEALPPKVSEGKDVLLLVHNLPQNLAGYIWYKGQLMDLYHYITSYVVDGQINIYGPAYTGRETVYSNASLLIQNVTREDAGSYTLHIIKRGDRTRGVTGYFTFNLYLKLPKPYITINNSKPRENKDVLAFTCEPKSENYTYIWWLNGQSLPVSPRVKRPIENRILILPSVTRNETGPYECEIRDRDGGMRSDPVTLNVLYGPDLPSIYPSFTYYRSGENLYLSCFAESNPPAEYFWTINGKFQQSGQKLSIPQITTKHRGLYTCSVRNSATGKESSKSMTVEVSAPSGIGRLPLLNPI: 4.28%
- MAAPSGGWNGVGASLWAALLLGAVALRPAEAVSEPTTVAFDVRPGGVVHSFSHNVGPGDKYTCMFTYASQGGTNEQWQMSLGTSEDHQHFTCTIWRPQGKSYLYFTQFKAEVRGAEIEYAMAYSKAAFERESDVPLKTEEFEVTKTAVAHRPGAFKAELSKLVIVAKASRTEL [Q969H8]: 5.57%

// recorded percentage of EdU-negative for "MRRMWATQGLAVALALSVLPGSRALRPGDCEVCISYLGRFYQDLKDRDVTFSPATIENELIKFCREARGKENRLCYYIGATDDAATKIINEVSKPLAHHIPVEKICEKLKKKDSQICELKYDKQIDLSTVDLKKLRVKELKKILDDWGETCKGCAEKSDYIRKINELMPKYAPKAASARTDL" : 6.6%

"MRPGAPGPLWPLPWGALAWAVGFVSSMGSGNPAPGGVCWLQQGQEATCSLVLQTDVTRAECCASGNIDTAWSNLTHPGNKINLLGFLGLVHCLPCKDSCDGVECGPGKACRMLGGRPRCECAPDCSGLPARLQVCGSDGATYRDECELRAARCRGHPDLSVMYRGRCRKSCEHVVCPRPQSCVVDQTGSAHCVVCRAAPCPVPSSPGQELCGNNNVTYISSCHMRQATCFLGRSIGVRHAGSCAGTPEEPPGGESAEEEENFV" has a reported percentage of EdU-negative of 4.84%

Entry "MKTLQFFFLFCCWKAICCNSCELTNITIAIEKEECRFCISINTTWCAGYCYTRDLVYKDPARPKIQKTCTFKELVYETVRVPGCAHHADSLYTYPVATQCHCGKCDSDSTDCTVRGLGPSYCSFGEMKE" — recorded percentage of EdU-negative = 4.61%

Reported percentage of EdU-negative for "MNCVCRLVLVVLSLWPDTAVAPGPPPGPPRVSPDPRAELDSTVLLTRSLLADTRQLAAQLRDKFPADGDHNLDSLPTLAMSAGALGALQLPGVLTRLRADLLSYLRHVQWLRRAGGSSLKTLEPELGTLQARLDRLLRRLQLLMSRLALPQPPPDPPAPPLAPPSSAWGGIRAAHAILGGLHLTLDWAVRGLLLLKTRL" was 6.32%
